tested-target: T1, human DLL3 (ACRO, DLL3-H52H4) (human, UniProt Q9NYJ7 27-492)
T1 construct: Bought
T1 sequence: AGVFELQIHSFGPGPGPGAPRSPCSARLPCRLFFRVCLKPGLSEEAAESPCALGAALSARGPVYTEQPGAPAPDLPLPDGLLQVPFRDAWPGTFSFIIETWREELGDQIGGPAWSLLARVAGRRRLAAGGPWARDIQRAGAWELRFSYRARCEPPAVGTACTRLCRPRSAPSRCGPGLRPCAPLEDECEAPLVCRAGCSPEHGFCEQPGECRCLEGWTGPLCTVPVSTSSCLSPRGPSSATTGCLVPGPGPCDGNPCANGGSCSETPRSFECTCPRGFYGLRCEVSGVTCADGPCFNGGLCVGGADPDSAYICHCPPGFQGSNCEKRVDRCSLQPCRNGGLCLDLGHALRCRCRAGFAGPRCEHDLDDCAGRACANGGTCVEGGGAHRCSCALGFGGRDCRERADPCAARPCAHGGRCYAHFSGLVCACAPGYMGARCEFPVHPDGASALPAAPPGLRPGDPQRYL
assay-method-text: SPR Biacore 8K, Ab captured on Protein A
endpoint-label: pKd
For clarity, pKd is expressed as the negative log10 of concentration in mol/L.

Consider the worked cases shown below.
binder	pKd
hu30L4H5 (antibody, human IgG1, kappa, V domains shown) VH: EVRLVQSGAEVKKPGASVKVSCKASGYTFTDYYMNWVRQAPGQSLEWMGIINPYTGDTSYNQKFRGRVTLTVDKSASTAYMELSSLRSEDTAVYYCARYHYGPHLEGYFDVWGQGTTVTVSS VL: DIQMTQSPSSLSASVGDRVTITCKASENVGYVSWYQQKPGKAPKLLIYGASNRYTGVPSRFSGSGSGTDFTLTISSLQPEDFATYYCGQSYSYPLTFGQGTKLEIKR	8.68
hu6L4H12 (antibody, human IgG1, kappa, V domains shown) VH: EVQLVQSGSELKKPGASVKVSCKASGYTFTDYYMNWVRQAPGQGLEWMGIINPYSGVTIYNHKFKGRFALSVDKSSNTAYLQISSLKAEDTAVYYCARQDSLLDYAMDYWGQGTTVTVSS VL: DIQMTQSPSSLSASVGDRVTITCHASQGISGNMGWLQQKPGKAPKGLIYHGANLEDGVPSRFSGSGSGADYTLTISSLQPEDFADYYCVQYAQFPYTFGGGTKVEIKR	9.41

Please examine the following record next.
Prompt: Fill blank: measured pKd of the binder hu6L1H3 (antibody, human IgG1, kappa, V domains shown) VH: EVQLVQSGAEVKKPGASVKVSCKASGYTFTDYYMNWVRQAPGQRLEWIGIINPYSGVTIYNHKFKGRATLTVDKSANTAYMELSSLRSEDTAVYYCARQDSLLDYAMDYWGQGTTVTVSS VL: DIQMTQSPSSLSASVGDRVTITCHASQGISGNMGWLQQKPGKAPKGLIYHGANLEDGVPSRFSGSGSGTDFTLTISSLQPEDFATYYCVQYAQFPYTFGGGTKVEIKR is ____.
Completion: 8.56
